ASSAY NOTES: Approximate solubility of freebase Compound A in 16 solvents at RT
Format: physicochemical
STUDY CONDITIONS: organic solvent or mixture, Cyclohexanes
MEASURED ATTRIBUTE: solubility

The value of solubility measured for the compound C[C@@H]1Cc2c([nH]c3ccccc23)[C@@H](c2c(F)cc(NC3CN(CCCF)C3)cc2F)N1CC(F)(F)CO [Compound A] turned out to be < 1900 µg/mL

====

ASSAY NOTES: Four-week GLP repeat-dose oral toxicity study in female rats
STUDY CONDITIONS: female, rat, plasma, po, 100 mg/kg
Structures can show the parent of a compound that is named as a salt.
MEASURED ATTRIBUTE: Cmax

// sample C[C@@H]1Cc2c([nH]c3ccccc23)[C@@H](c2c(F)cc(NC3CN(CCCF)C3)cc2F)N1CC(F)(F)CO [Compound B, tartrate] , its Cmax was 6560 ng/mL

====

ASSAY NOTES: Approximate solubility of freebase Compound A in 16 solvents at RT
Type: physicochemical
STUDY CONDITIONS: organic solvent or mixture, ACN
MEASURED ATTRIBUTE: solubility

Field solubility (entry C[C@@H]1Cc2c([nH]c3ccccc23)[C@@H](c2c(F)cc(NC3CN(CCCF)C3)cc2F)N1CC(F)(F)CO ) reads > 60 mg/mL

====

ASSAY NOTES: Approximate solubility of Compound B Form B material in 20 solvents at RT
Format: physicochemical
STUDY CONDITIONS: organic solvent or mixture, thermodynamic from solid, MeOH
Structures can show the parent of a compound that is named as a salt.
MEASURED ATTRIBUTE: solubility

In plain terms, C[C@@H]1Cc2c([nH]c3ccccc23)[C@@H](c2c(F)cc(NC3CN(CCCF)C3)cc2F)N1CC(F)(F)CO [Compound B, tartrate] has a documented solubility of 6.7 to 20 mg/mL
